targetOfAssay: full-length human ABHD2 (ABHD2^FL) (Homo sapiens, UniProt P08910)
Construct: TEV site-eGFP-8xHis (C, cleaved yes); made in house; host or cells: SF9 insect cells (baculovirus)
Sequence (P08910 whole entry): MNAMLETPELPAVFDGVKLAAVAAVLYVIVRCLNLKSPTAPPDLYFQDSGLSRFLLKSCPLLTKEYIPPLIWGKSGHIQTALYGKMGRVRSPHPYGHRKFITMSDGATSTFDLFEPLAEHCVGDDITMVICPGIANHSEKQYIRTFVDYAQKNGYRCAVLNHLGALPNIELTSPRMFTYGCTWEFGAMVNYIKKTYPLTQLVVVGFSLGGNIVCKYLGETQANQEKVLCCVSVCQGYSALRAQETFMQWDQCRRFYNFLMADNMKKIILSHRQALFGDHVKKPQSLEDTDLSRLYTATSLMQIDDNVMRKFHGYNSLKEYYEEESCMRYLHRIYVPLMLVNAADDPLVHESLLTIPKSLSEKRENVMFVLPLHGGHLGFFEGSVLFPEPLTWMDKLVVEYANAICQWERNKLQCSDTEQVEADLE
protocolNotes: ABHD2^FL enzymatic activity assay with 7-HCA substrate
Format: biochemical
reportedConditions: 5 µM 7-HCA; read-out: IC50, ABHD2^FL, 7-HCA assay
resultType: pIC50
Friendly reminder that pIC50 comes from taking -log10 of the concentration in mol/L.

Q. Quick one: pIC50 of `CCCCCCCCCCC[C@@H](C[C@@H]1OC(=O)[C@H]1CCCCCC)OC(=O)[C@H](CC(C)C)NC=O` ?
A. 6.01
